Sourced from paper PMC12486301

Documented inhibition at 20 µM across a set of molecules
- Target Desc: ENT1 (Homo sapiens)
- Sequence (Q99808 1-456): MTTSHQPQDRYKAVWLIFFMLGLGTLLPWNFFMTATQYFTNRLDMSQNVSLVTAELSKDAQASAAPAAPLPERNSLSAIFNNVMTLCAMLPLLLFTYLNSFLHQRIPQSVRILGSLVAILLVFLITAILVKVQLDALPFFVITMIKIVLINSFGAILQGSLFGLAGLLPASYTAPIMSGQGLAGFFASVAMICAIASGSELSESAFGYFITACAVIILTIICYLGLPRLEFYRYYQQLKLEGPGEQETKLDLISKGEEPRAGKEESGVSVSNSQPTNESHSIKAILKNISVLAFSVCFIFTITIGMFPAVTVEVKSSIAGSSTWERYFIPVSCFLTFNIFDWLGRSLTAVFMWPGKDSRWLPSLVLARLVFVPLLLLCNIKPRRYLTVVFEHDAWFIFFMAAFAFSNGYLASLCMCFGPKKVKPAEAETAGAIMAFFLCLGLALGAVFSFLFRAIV
- Assay Details: Inhibition of [3H]uridine uptake into WT HeLa
- Assay type: cell-based
- Experimental Context: HeLa, read-out: ENT1 % Inhibition (20μM)
Number only, in %; omit the unit.

These solved cases illustrate the format of a correct answer.
# Molecule, Reading Unit, inhibition at 20 µM
records = [
    ("C[C@@H]1O[C@@H](O[C@H]2[C@H](Oc3cc(O)c4c(c3)O[C@H](c3ccc(O)cc3)CC4=O)O[C@H](CO)[C@@H](O)[C@@H]2O)[C@H](O)[C@H](O)[C@H]1O", "%", 24.4),
    ("CCOC(=O)c1ncn2c1CN(C)C(=O)c1cc(F)ccc1-2", "%", 20),
]

inhibition at 20 µM for CC(=O)N1CCN(c2ccc(OCC3COC(Cn4ccnc4)(c4ccc(Cl)cc4Cl)O3)cc2)CC1 (stereo not drawn) is 98.4

inhibition at 20 µM for `COc1ccc(-c2cc(=O)c3c(OC)c(OC)c(OC)cc3o2)cc1OC` is 95.9

inhibition at 20 µM for `O=c1c(O)c(-c2cc(O)c(O)c(O)c2)oc2cc(O)cc(O)c12` is 82.4

inhibition at 20 µM for `CCc1oc2ccccc2c1C(=O)c1cc(Br)c(O)c(Br)c1` is 79.6

inhibition at 20 µM for `O=c1[nH]c2ccccc2n1CCCN1CCC(n2c(=O)[nH]c3cc(Cl)ccc32)CC1` is 24.4

inhibition at 20 µM for `CC(=O)[C@H]1CC[C@H]2[C@@H]3C[C@H](C)C4=CC(=O)CC[C@]4(C)[C@H]3[C@@H](O)C[C@]12C` is 95.1

inhibition at 20 µM for `O=c1c(O)c(-c2ccc(O)c(O)c2)oc2cc(O)cc(O)c12` is 53.1
